- Species: Homo sapiens
- measurement_notes: Inhibition of alpha-glucosidase (unknown origin) at 100 uM
Calls of active or inactive are those of the source. The calls are words filed in the database; no cut-off is given here.
quantity_measured: inhibition

Study these solved cases before continuing.
[
  {
    "smiles_string": "CC(C)[C@]12SS[C@]([C@@H](O)c3c[nH]c4ccccc34)(CC1=O)C(=O)N2C",
    "inhibition": "inactive"
  },
  {
    "smiles_string": "CO[C@]1([C@H](SC)c2c[nH]c3ccccc23)NC(=O)[C@@](SC)(C(C)C)N(C)C1=O",
    "inhibition": "inactive"
  },
  {
    "smiles_string": "CS[C@]1(Cc2c[nH]c3ccccc23)NC(=O)[C@@](SC)(C(C)C)NC1=O",
    "inhibition": "inactive"
  },
  {
    "smiles_string": "CC(C)[C@@]12SS[C@]3(C(=O)N1C)[C@@H](O)[C@]1(c4c[nH]c5ccccc45)c4ccccc4N[C@@H]1N3C2=O",
    "inhibition": "inactive"
  },
  {
    "smiles_string": "CC(C)[C@@H]1NC(=O)[C@@H]2C[C@@]3(O)c4ccccc4N[C@H]3N2C1=O",
    "inhibition": "inactive"
  },
  {
    "smiles_string": "CS[C@H](c1c[nH]c2ccccc12)[C@]1(O)NC(=O)[C@@](SC)(C(C)C)N(C)C1=O",
    "inhibition": "inactive"
  },
  {
    "smiles_string": "CO[C@@]1([C@H](SC)c2c[nH]c3ccccc23)NC(=O)[C@@](SC)(C(C)C)N(C)C1=O",
    "inhibition": "inactive"
  }
]

Pending compound:
(Q) Need inhibition, item CS[C@]1(Cc2c[nH]c3ccccc23)NC(=O)[C@](CO)(SC)N(C)C1=O
(A) inactive
